Biological target: Phosphodiesterase 1B (PDE1B)
Assay: Measurement of PDE1B inhibition in vitro using IMAP phosphodiesterase assay kit
Settings: PDE1 inhibitory activity, IMAP fluorescence polarization, cGMP-fluorescein substrate
Excerpt: Measurement of PDE1B Inhibition in Vitro Using IMAP Phosphodiesterase Assay Kit Phosphodiesterase 1B (PDE1B) is a calcium/calmodulin dependent phosphodiesterase enzyme that converts cyclic guanosine monophosphate (cGMP) to 5′-guanosine monophosphate (5′-GMP). […] The generation of GMP-fluorescein from cGMP-fluorescein can be quantitated, using, for example, the IMAP (Molecular Devices, Sunnyvale, Calif.) immobilized-metal affinity particle reagent. […]
pIC50: −log10 of the molar value.
RESULT_TYPE: pIC50

Entry C/N=c1/c2c(Nc3ccccc3)n(Cc3ccc(-c4ccccn4)cc3)nc2n(CC(C)C)c(=O)n1C [Example 2] : pIC50 on Phosphodiesterase 1B (PDE1B) = > 6.70

All values here come from patent US8697710B2.
